tested on: endogenous SREBPs; assay: Luciferase reporter assay (pSRE-Luc, normalized by β-gal) in HEK293 cells; format: cell-based, human; parameters: dose or concentration left out as unconfirmed; details: entries 1, 40-44 (FIG. 17); None = 8.2181
outcome_measure: Luc/Gal
Give bare numbers.

Here's what some known entries look like.
CCCc1cc(-c2nc(-c3ccc(C)cc3)cs2)ccn1; 3.4437
CCCc1cc(-c2nc(-c3ccc(NC4CCCCC4)cc3)cs2)ccn1; 6.5229
CCCc1cc(-c2nc(-c3ccc(NS(=O)(=O)c4cccc5cccnc45)cc3)cs2)ccn1; 2.8506
CCCc1cc(-c2nc(-c3ccc(NS(=O)(=O)c4ccc(C)cc4)cc3)cs2)ccn1; 3.3957
CCCc1cc(-c2nc(-c3ccc(NC(=O)OC(C)(C)C)cc3)cs2)ccn1; 2.4390

Which measured Luc/Gal value corresponds to CCCc1cc(-c2nc(-c3ccc(NS(=O)(=O)c4cccs4)cc3)cs2)ccn1 ?
1.8538

###

system: endogenous SREBPs; test: SREBP activation assay (pSRE-Luc luciferase reporter) in CHO-K1 cells; type: cell-based, Chinese hamster; conditions: Cricetulus griseus, CHO-K1; 5 μM in CHOK1 cells
Provide the reported inhibition at 5 µM of each item.

Give measured inhibition at 5 µM for every item shown.
1. Cc1ccc(-c2csc(/C(C#N)=C\Cc3ccc(S(=O)(=O)Nc4nccs4)cc3)n2)c(C)c1 [Compound 61]
2. CS(=O)(=O)Nc1ccc(-c2csc([C@H]3CCCN3C(=O)OCc3ccccc3)n2)cc1 [Compound 53]
3. Cc1ccc(S(=O)(=O)Nc2ccc(C(=O)N3CCN(c4cc(Cl)ccc4C)CC3)cc2)cc1 [Compound 58]
4. CCCc1cc(-c2nc(-c3ccc(NS(C)(=O)=O)cc3)cs2)ccn1 [Compound 19]

1: ~25%; 2: ~30%; 3: ~42%; 4: ~45%

###

tested on: endogenous SREBPs; assay: Luciferase reporter assay (pSRE-Luc, normalized by β-gal) in HEK293 cells; type: cell-based, human; set-up: dose or concentration left out as unconfirmed; details: entries 1, 19-34 (FIG. 16); None = 15.0759
Provide the reported Luc/Gal of each item.
One number for each entry.

Here's what some known entries look like.
CCCc1cc(-c2nc(-c3ccc(NCC4CC4)cc3)cs2)ccn1; 6.4378
CCCc1cc(-c2nc(-c3cccs3)cs2)ccn1; 12.1593
Clc1ccc(-c2csc(-c3ccncc3)n2)cc1; 16.9971
CCCc1cc(-c2nc(-c3cccc(OC)c3)cs2)ccn1; 7.8536
CCCc1cc(-c2nc(-c3ccc(Br)cc3)c(C(=O)OC)s2)ccn1; 8.1137

Give measured Luc/Gal for every item shown.
1. CCCc1cc(-c2nc(-c3ccc(Br)cc3)c(C(=O)NC(C)C)s2)ccn1
2. CCCc1cc(-c2nc(-c3ccc(OC)cc3)cs2)ccn1
3. CCCc1cc(-c2nc(-c3ccc(C)cc3)cs2)ccn1
4. CCCc1cc(-c2nc(-c3ccc(Br)cc3)c(C(=O)O)s2)ccn1
5. CCCc1cc(-c2nc(-c3cccc(O)c3)cs2)ccn1
6. Cc1ccc(-c2csc(-c3ccccc3)n2)cc1
7. CCCc1cc(-c2nc(-c3ccccc3O)cs2)ccn1

1: 16.0226; 2: 11.0367; 3: 7.5537; 4: 21.5911; 5: 12.7791; 6: 13.8222; 7: 8.2379
